Measured inhibition accompanies every entry in the list below.
Target: L-lactate dehydrogenase (Plasmodium falciparum (isolate CDC / Honduras))
Experiment: PfLDH activity inhibition – cell lysate, 3D7 strain, counter-screen for P. falciparum growth inhibition project (AID 2304);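 note: 0% = vehicle and 100% = reference inhibitor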
Settings: P. falciparum 3D7 crude extract, LDH APAD/NBT absorbance; at 2 µM; stronger effect = higher value

Compound	inhibition (%)
CN(C)c1ccc(-c2csc(C(=O)NC3CCCCN(CCC(C)(C)C)C3)c2)cc1 (configuration not stated)	4
O=C(Nc1ccnc(N2CCCN(Cc3cccc(O)c3)CC2)c1)c1ccc(F)cc1	4
OCC1CCN(Cc2ccc(-c3ccc(-c4nc5ccc(F)cc5[nH]4)cc3)cc2)CC1	-1
O=C(Nc1ccc(Cl)c(Cl)c1)N1CCc2ccc(OCCCN3CCCCC3)cc2CC1	-2
N#Cc1ccc(N2CCN(C(=O)c3cccc(-c4noc(C(F)(F)F)n4)c3)CC2)nc1	3
CC(CN1CCN(C)CC1)C(=O)Nc1cccc(-c2ccc(-c3nc4ccc(C(F)(F)F)cc4[nH]3)cc2)c1 (configuration not stated)	-2
O=C(Nc1ccc(Br)cc1)Nc1ccc(Cn2ncc(N3CCCNCC3)c(Cl)c2=O)cc1	-1
Cc1cccc2[nH]c(-c3cccc(-c4cccc(CN5CCN(c6ccc(C#N)cn6)CC5)c4)c3)nc12	-5
COc1ccc2nccc([C@@H](O)CN3CCC(NCCc4c[nH]c5ccccc45)CC3)c2c1	-7
Cc1cccc(Cn2nc(-c3ccccc3)c(N3CCCCC3)cc2=O)c1	0
Cc1[nH]c(C)c(-c2ccc(Br)cc2)c(=O)c1Br	6
CC(C)C[C@H](Nc1ccnc(NCC2CCCCC2)n1)C(=O)NCCc1ccccc1	0
Cc1sc(C)c(C(F)(F)F)c1CNCCCNc1cc(=O)c2ccccc2[nH]1	-1
O=C(/C=C/c1ccccc1Cl)Nc1ccc(Br)c(OCCN2CCN(CCN3CCOCC3)CC2)c1	-3
O=C(N1CCN(c2cccc(C(F)(F)F)c2)CC1)C(Cl)(Cl)Cl	2
COc1ccc2nc(C)cc(NN=Cc3ccccc3[N+](=O)[O-])c2c1	-2
CCn1cc(CN2C(=O)C(c3ccccc3)(c3ccccc3)N=C2N)cn1	-2
